Test system: MALME-3M melanoma
Assay: NCI tumour cell line growth inhibition, 48 h
Give measured TGI for each item. Keep answers brief.

What value of TGI has been reported for the following molecule? `CC(C)C/C(CC(=O)CCC(=O)Nc1ccccc1[N+](=O)[O-])=N\NC(=O)c1cc2ccccc2cc1O`
> 100 µM

Again, but for `CC(=O)Nc1ccc(-c2nnc(SCC(=O)Nc3ccc([N+](=O)[O-])cc3)o2)cc1`
27 µM

Item: `Clc1cc2nsnc2c(Cl)n1`
31.3 µM

// repeat for `C(/c1ccco1)=c1/nc(-c2ccccc2)n2c1nc1ccccc12` and report
> 100 µM

Would you kindly repeat that for `CC(=O)NC1=C(NCCC(C)C)C(=O)c2ccccc2C1=O` ?
> 50 µM

Another: `c1ccc(N=C2SC3=Nc4cccc5cccc(c45)N3C2=Nc2ccccc2)cc1`
> 100 µM

Entry to check: `CC/C=C\CCC/C=C1/C(=O)C=C[C@@H]1C/C=C\CCCC(=O)OC`
16.6 µM

Next molecule: `CC(C)CC(=O)OC[n+]1ccc(-c2c(COC(=O)NC(C)C)c(COC(=O)NC(C)C)c3n2CCC3)cc1`
> 100 µM

Then `Cc1ccc(N=Nc2ccc(N(CCC#N)CCC#N)cc2C)c(Br)c1` ?
> 100 µM

Try `Cc1nc2ccccc2c(=O)n1-c1ccccc1I` next.
> 100 µM

Could you do the same for C[C@]12CC[C@H](O)CC1=CC[C@@H]1C2CC[C@]2(C)C(=O)N(N)C(=O)CC12 (stereo not given in full) , please?
> 100 µM

What about this molecule? O=C1C2C(C(=O)N1OS(=O)(=O)c1ccccc1)N(Cc1ccccc1)C(=O)N2Cc1ccccc1 (stereo not given)
> 100 µM

// query: `Clc1ccc2c(NCCCCNc3nc(N4CCCCC4)nc4ccccc34)ccnc2c1`
3.48 µM

Now consider `COc1cc([C@@H]2c3cc4c(cc3[C@@H](Nc3ccc([N+](=O)[O-])cc3C(=O)c3ccccc3)[C@H]3COC(=O)[C@H]23)OCO4)cc(OC)c1OC` .
> 100 µM

COC(=O)C1CCC(=O)N1C(c1ccccc1)c1ccc(OC)c(OC)c1 (stereo not given) , same question.
> 100 µM

Now this one: O=C(O)CN(CC(=O)O)C1CCCCC1N(CC(=O)O)CC(=O)NCCN=C=S (stereo not given)
> 100 µM

Thanks! And `COc1ccc(C(=O)Cn2c(C(=O)c3ccccc3)nc(-c3ccc(OC)cc3)c2-c2ccc(OC)cc2)cc1` ?
> 100 µM

Cool, now `O=[N+]([O-])C(=C1NCCN1)/C(Cl)=C(\Cl)Br`
> 61.7 µM

Again, but for `CC[C@@]1(C[C@H]2C[C@@]3(C(=O)OC)c4[nH]c5ccccc5c4CCN3C2=O)COC2(CCCCC2)O1`
> 100 µM

Then `Cc1cccc(/C=N/NC(=S)Nc2ccccc2)n1` ?
64.2 µM

====

Test system: NCI-H460 lung
Experiment: NCI tumour cell line growth inhibition, 48 h
Where a SMILES comes first, the peptide text is derived from it. [ ]: non-standard residue; d: D form. The star is where a group is joined. ξ: configuration not given here. X6 = FC(F)(F)c1cc(NC(=S)*)cc(C(F)(F)F)c1; ξF = NC(Cc1ccccc1)C(=O)O
Could you please report measured TGI for the items listed next?
Return type: number; implicit unit µM.

Look at this compound and give its reported TGI. COC(=O)[C@@H](NC(=O)CNC(=O)[C@H]1CCCN1C(=O)C(Cc1ccccc1)NC(=S)Nc1cc(C(F)(F)F)cc(C(F)(F)F)c1)C(C)C (some centres undefined) (X6-[ξF][dP]GV-OMe)
12

Entry to check: C=C1C(=O)C23CC1CCC2C12CO[C@@H]4OCC(C)(CC[C@@H]1OC3=O)C42 (some centres undefined)
17.5

Same question, `COC1=CC(c2ccc[nH]2)=N/C1=C\c1[nH]c(C)c(C(=O)OC(C)C)c1C` this time
1.63

// repeat for `COc1cc(/C=C2\S/C(=N/Nc3nc(-c4ccc(Br)cc4)cs3)NC2=O)cc(OC)c1OC` and report
37.4
